Parameter log10(IC50): see the listing below.
# Assay system: H-PGDS (Homo sapiens (Human))
# Sequence (O60760 whole entry): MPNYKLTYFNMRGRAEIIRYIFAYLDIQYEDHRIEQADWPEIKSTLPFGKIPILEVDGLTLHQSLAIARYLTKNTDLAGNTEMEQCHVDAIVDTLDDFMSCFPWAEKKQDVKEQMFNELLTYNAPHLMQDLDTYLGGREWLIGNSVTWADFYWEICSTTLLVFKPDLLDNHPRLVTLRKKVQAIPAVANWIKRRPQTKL
# Test summary: H-PGDS Fluorescence Polarization Binding Assay (FPBA)
# Condition context: H-PGDS-MBP fusion enzyme, fluorescent probe, reduced glutathione 5 mM, 60-90 minutes at room temperature, 96-well format
Note the log scale: values are log10 of IC50 expressed in µM.

The cases that follow already have their log10(IC50) on record.
{"Compound": "OC(N1CCCC(c2ncc(-c3cnc(-c4ccccc4)nc3)[nH]2)C1)C(F)(F)F (stereo not drawn)", "log10(IC50)": 1.00}
{"Compound": "c1ccc(Oc2ncc(-c3cnc(-c4cccnc4)[nH]3)cn2)cc1", "log10(IC50)": -0.20}
{"Compound": "c1ccc(-c2ncc(-c3cnc[nH]3)cn2)cc1", "log10(IC50)": 0.70}
{"Compound": "O=C(c1cccnc1)N1CCC(c2nc(-c3cnc(-c4ccccc4)nc3)c[nH]2)CC1", "log10(IC50)": -0.35}
{"Compound": "c1ccc(Cn2c(-c3cnc(-c4ccccc4)nc3)cnc2-c2ccccc2)cc1 [Example 1 (Step C)]", "log10(IC50)": 1.18}

Now let's try a different one.
Enquiry: Which log10(IC50) is listed for c1ccc(Cc2ncc(-c3cnc(Oc4ccccc4)nc3)[nH]2)cc1 ?
Return: 1.00
